Data origin: patent US5354862A

- System: Pseudomonas aeruginosa
- TEST METHOD NOTES: Broth two-fold serial dilution MIC test
- Type: cell-based, Pseudomonas aeruginosa (ATCC 15442)
- TEST SETTINGS: Table 2; Psae; TSB media

{"COMPOUND": "CCCCCCCCCCCCCCCC[N+]1(CC#CI)CCCC1 [Compound 7]", "CENSORING SIGN": "=", "MIC, ppm": 8}
{"COMPOUND": "CCCCCCCCCC[N+]1(CC#CI)CCCC1", "CENSORING SIGN": "=", "MIC, ppm": 500}
{"COMPOUND": "CCCCCCCCCCCCCC[N+]1(CC#CI)CCCCC1C (centres unmarked) [Compound 54]", "CENSORING SIGN": "=", "MIC, ppm": 125}
{"COMPOUND": "CCCCCCCCCCCC[N+]1(CC#CI)CCCC1 [Compound 13]", "CENSORING SIGN": "=", "MIC, ppm": 250}
{"COMPOUND": "CCCCCCCCCCCCCCC[N+]1(CC#CI)CCCC1 [Compound 33]", "CENSORING SIGN": "=", "MIC, ppm": 32}
{"COMPOUND": "CCCCCCCCCCCCOC(=O)C[N+]1(CC#CI)CCCC1 [Compound 75]", "CENSORING SIGN": "=", "MIC, ppm": 125}
{"COMPOUND": "CCCCCCCCCCCCCC[N+]1(CC#CI)CCOCC1 [Compound 86]", "CENSORING SIGN": "=", "MIC, ppm": 32}
{"COMPOUND": "CCCCCCCCCCCCCC[N+]1(CC#CI)CCCC1 [Compound 34]", "CENSORING SIGN": "=", "MIC, ppm": 2}
{"COMPOUND": "CCCCCCCCCCCCCCC[N+]1(CC#CI)CCCC1 [Compound 38]", "CENSORING SIGN": "=", "MIC, ppm": 63}
{"COMPOUND": "CCCCCCCCCCCCCC[N+]1(CC#CI)CCCC1 [Compound 87]", "CENSORING SIGN": "=", "MIC, ppm": 64}
{"COMPOUND": "CCCCCCCCCCCCCCCC[N+]1(CC#CI)CCCCC1 [Compound 60]", "CENSORING SIGN": "=", "MIC, ppm": 250}
{"COMPOUND": "CCCCCCCCCCCCCCCC[N+]1(CC#CI)CCCC1 [Compound 35]", "CENSORING SIGN": ">", "MIC, ppm": 500}
{"COMPOUND": "CCCCCCCCCCCCCCCC[N+]1(CC#CI)CC(C)OC(C)C1 (centres unmarked) [Compound 47]", "CENSORING SIGN": "=", "MIC, ppm": 8}
{"COMPOUND": "CCCCCCCCCCOC(=O)CC[N+]1(CC#CI)CCCC1", "CENSORING SIGN": "=", "MIC, ppm": 500}
{"COMPOUND": "CCCCCCCCCCCCCCCC[N+]1(CC#CI)CCCC1 [Compound 80]", "CENSORING SIGN": "=", "MIC, ppm": 125}
{"COMPOUND": "CCCCCCCCCCCCC[N+]1(CC#CI)CCCC1 [Compound 31]", "CENSORING SIGN": "=", "MIC, ppm": 32}
{"COMPOUND": "CCCCCCCCCCCCCCCC[N+]1(CC#CI)CCOCC1 [Compound 50]", "CENSORING SIGN": "=", "MIC, ppm": 8}
{"COMPOUND": "CCCCCCCCCCCCCCCC[N+]1(CC#CI)CCOCC1 [Compound 49]", "CENSORING SIGN": "=", "MIC, ppm": 8}
{"COMPOUND": "CCCCCCCCCCCCCC[N+]1(CC#CI)CCOCC1 [Compound 41]", "CENSORING SIGN": "=", "MIC, ppm": 4}
{"COMPOUND": "CCCCCCCCCCCCCCCC[N+]1(CC#CI)CC(C)OC(C)C1 (centres unmarked) [Compound 48]", "CENSORING SIGN": "=", "MIC, ppm": 8}
{"COMPOUND": "CCCCCCCCCCCCCC[N+]1(CC#CI)CCCCC1 [Compound 62]", "CENSORING SIGN": "=", "MIC, ppm": 63}
{"COMPOUND": "CCCCCCCCCCCCOC(=O)C[N+]1(CC#CI)CCCC1 [Compound 64]", "CENSORING SIGN": "=", "MIC, ppm": 32}
{"COMPOUND": "CCCCCCOC(=O)CCCCC[N+]1(CC#CI)CCCC1", "CENSORING SIGN": ">", "MIC, ppm": 500}
